Some compounds, each annotated with its measured IC50.
# System: HT-29 (colon)
# RUN DESCRIPTION: Growth inhibition, MTT assay, HT-29
# Format: cell-based, human
# COND: HT-29, 72-h drug exposure, read-out: IC50 growth inhibitory activity
Value expressed in µM; do not type the unit.

> print(dat)
                                   compound  readout.value
1  CN(CCBr)P(=O)(OCC1=CC(=O)c2ccccc2C1=O)N(C)CCBr [Compound 40a]           5.92
2  COC1=CC(=O)c2c(cc(COP(N)(=O)N(CCCl)CCCl)n2C)C1=O (stereo not shown)           0.34
3  COC1=CC(=O)c2c(cc(COP(N)(=O)N(CCBr)CCBr)n2C)C1=O (stereo not shown)          0.061

Now for another entry.
Ask | Given the compound NP(=O)(OCC1=CC(=O)c2ccccc2C1=O)N(CCBr)CCBr (stereo not shown) [Compound 16a] , what is its reported IC50?
Reply | 15.3
